- Protocol Text: activity coefficient (dimensionless); of the first substance listed, at infinite dilution; xn = mol fraction of the nth substance listed
- Study Conditions: 323.15 K; 101 kPa; Liquid; Chromatography; x1 = 0
# activity coefficient per entry
Answer with a number only.

Molecule: ClC(Cl)(Cl)Cl [tetrachloromethane] + C=CC[n+]1ccn(CCCCCCCCCCCC)c1.[Br-]
activity coefficient: 0.7
--
Molecule: C#CCCCCC [1-heptyne] + C=CC[n+]1ccn(CCCCCCCCCC)c1.[Br-]
activity coefficient: 2.58
--
Molecule: ClC(Cl)(Cl)Cl [tetrachloromethane] + C[n+]1ccn(CCCB(O)O)c1.[Br-]
activity coefficient: 21.2

Supply reported activity coefficient belonging to this molecule: c1ccccc1 [benzene] + C=CCn1cc[n+](C)c1.[Br-]
3.6

Supply reported activity coefficient belonging to this molecule: CCC(C)=O [butanone] + C=CC[n+]1ccn(CCCCCCCCCCCC)c1.[Br-]
1.43

Supply reported activity coefficient belonging to this molecule: Cc1ccccc1C [1,2-dimethylbenzene] + CCCCCCCC[n+]1ccn(CCCB(O)O)c1.[Br-]
3.11
